Origin of the recorded values: the supplement of paper PMC10567573

B1: IFRG15 (parent)
chain: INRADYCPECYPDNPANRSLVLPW

# Variants of: B1
# experimental_protocol: protein stability index of a GFP-peptide fusion (GPS, HEK-293T) (PSI 1-6); higher = more stable;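 also: lentivirally expressed fusions sorted by FACS into six bins by GFP to DsRed ratio, PSI derived from sequencing read proportions per bin multiplied by bin number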
# condition: c terminus: a fixed tail appended
Could you label it 1 if measured protein stability index is 2 or higher, and -1 otherwise?

S19A; 1

Given the entry D13W , answer whether its protein stability index meets or surpasses 2.
1

Given the entry N17R , answer whether its protein stability index meets or surpasses 2.
-1

Given the entry W24E , answer whether its protein stability index meets or surpasses 2.
1

Given the entry A16K , answer whether its protein stability index meets or surpasses 2.
-1

Given the entry V21W , answer whether its protein stability index meets or surpasses 2.
-1

Given the entry S19M , answer whether its protein stability index meets or surpasses 2.
-1

Given the entry W24G , answer whether its protein stability index meets or surpasses 2.
1

Given the entry A4G , answer whether its protein stability index meets or surpasses 2.
1

Given the entry S19G , answer whether its protein stability index meets or surpasses 2.
-1

Given the entry V21Q , answer whether its protein stability index meets or surpasses 2.
1
